Target: cMET (Homo sapiens, UniProt P08581)
Sequence (P08581 25-1390): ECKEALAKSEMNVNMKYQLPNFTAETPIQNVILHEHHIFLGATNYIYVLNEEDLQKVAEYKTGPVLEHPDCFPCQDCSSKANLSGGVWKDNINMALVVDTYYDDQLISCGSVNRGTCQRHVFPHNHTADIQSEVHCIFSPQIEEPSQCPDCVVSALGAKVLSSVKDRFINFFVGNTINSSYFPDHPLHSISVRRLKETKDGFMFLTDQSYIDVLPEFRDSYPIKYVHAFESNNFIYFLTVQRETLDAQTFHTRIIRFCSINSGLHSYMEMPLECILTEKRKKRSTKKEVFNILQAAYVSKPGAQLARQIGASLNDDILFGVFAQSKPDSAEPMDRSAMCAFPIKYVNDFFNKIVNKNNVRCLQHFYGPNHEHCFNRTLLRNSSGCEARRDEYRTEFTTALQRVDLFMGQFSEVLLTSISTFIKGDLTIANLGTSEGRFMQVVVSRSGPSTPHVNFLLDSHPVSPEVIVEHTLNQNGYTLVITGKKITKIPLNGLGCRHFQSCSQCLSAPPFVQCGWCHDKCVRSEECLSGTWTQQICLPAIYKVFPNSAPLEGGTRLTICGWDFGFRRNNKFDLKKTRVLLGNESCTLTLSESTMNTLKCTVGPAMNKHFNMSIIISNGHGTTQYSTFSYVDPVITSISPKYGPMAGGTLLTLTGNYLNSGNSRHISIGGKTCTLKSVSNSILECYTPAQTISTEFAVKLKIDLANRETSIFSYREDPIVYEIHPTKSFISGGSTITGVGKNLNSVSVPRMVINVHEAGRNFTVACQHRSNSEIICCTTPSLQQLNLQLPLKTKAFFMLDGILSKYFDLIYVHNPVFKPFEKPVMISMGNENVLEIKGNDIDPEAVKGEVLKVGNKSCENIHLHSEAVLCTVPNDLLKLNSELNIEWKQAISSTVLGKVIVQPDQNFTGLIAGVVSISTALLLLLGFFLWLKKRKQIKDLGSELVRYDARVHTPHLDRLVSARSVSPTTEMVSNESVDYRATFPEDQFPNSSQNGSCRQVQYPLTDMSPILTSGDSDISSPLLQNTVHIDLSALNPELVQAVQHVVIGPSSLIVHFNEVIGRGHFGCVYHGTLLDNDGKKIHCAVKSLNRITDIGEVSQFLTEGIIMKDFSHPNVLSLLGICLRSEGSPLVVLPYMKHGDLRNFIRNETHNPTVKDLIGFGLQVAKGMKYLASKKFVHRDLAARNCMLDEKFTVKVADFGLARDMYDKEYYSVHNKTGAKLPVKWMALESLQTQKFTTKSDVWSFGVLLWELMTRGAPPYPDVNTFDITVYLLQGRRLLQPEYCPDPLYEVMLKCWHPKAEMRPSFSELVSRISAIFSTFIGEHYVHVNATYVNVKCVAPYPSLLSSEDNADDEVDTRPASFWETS
Experiment: Evaluation of inhibitory activity against MET (TR-FRET kinase assay)
Format: biochemical
Details: cMET protein, TK peptide substrate
The following molecules are shown together with reported IC50 values.

# annotated cases, reported IC50 shown
INSERT INTO results (smiles_entry, readout_name, test_value) VALUES
  ('Nc1nccc(Oc2ccc(NC(=O)c3cnn(-c4ccccc4)c3F)cc2F)c1Cl', 'IC50', '> 5 µM'),
  ('Nc1nccc(Oc2ccc(NC(=O)c3cnn(-c4ccccc4Cl)c3C(F)(F)F)cc2F)c1Cl', 'IC50', '0.5 to 5 µM'),
  ('Nc1nccc(Oc2ccc(NC(=O)c3cnc(-c4ccccc4)s3)cc2F)c1Cl', 'IC50', '> 5 µM'),
  ('O=C(Nc1ccc(Oc2ccnc(NC(=O)C3CC3)c2Cl)c(F)c1)c1ncn(-c2ccccc2)c1C(F)(F)F', 'IC50', '> 5 µM'),
  ('Nc1nccc(Oc2ccc(NC(=O)c3ccc(-c4ccccc4)s3)cc2F)c1Cl', 'IC50', '> 5 µM');

## Input Given the molecule Nc1nccc(Oc2ccc(NC(=O)c3cnn(-c4ccc(F)cc4)c3C(F)(F)F)cc2F)c1Cl , write its reported IC50.
## Output > 5 µM

## Input Identify the reported IC50 for the following entry. Cc1ccc(-n2ncc(C(=O)Nc3ccc(Oc4ncnc(N)c4Cl)c(F)c3)c2C(F)(F)F)cc1
## Output > 5 µM

## Input Annotate the molecule Nc1nccc(Oc2ccc(NC(=O)c3cnn(Cc4ccccc4)c3C(F)(F)F)cc2F)c1Cl with its measured IC50.
## Output 0.5 to 5 µM

* * *

These records show IC50 for cMET (Homo sapiens, UniProt P08581).

Sample answers from the record:
INSERT INTO assay_data (molecule, readout_name, test_value) VALUES
  ('Cc1nc(-c2ccccc2)sc1C(=O)Nc1ccc(Oc2ncnc(N)c2Cl)c(F)c1', 'IC50', '> 5 µM'),
  ('Nc1nccc(Oc2ccc(NC(=O)c3cnn(-c4ccccc4)c3)cc2F)c1Cl', 'IC50', '> 5 µM'),
  ('Nc1nccc(Oc2ccc(NC(=O)c3cnn(C4CCCOC4)c3C(F)(F)F)cc2F)c1Cl (centres unmarked)', 'IC50', '0.5 to 5 µM'),
  ('O=C(Nc1ccc(Oc2ccnc(Cl)c2)c(F)c1)c1ncn(-c2ccccc2)c1C(F)(F)F', 'IC50', '> 5 µM'),
  ('Cc1nc(-c2ccccc2)sc1C(=O)Nc1ccc(Oc2ccnc(N)c2Cl)c(F)c1', 'IC50', '> 5 µM');

## Input Under cMET (Homo sapiens, UniProt P08581), report IC50 for COc1ccccc1-n1ncc(C(=O)Nc2ccc(Oc3ccnc(N)c3Cl)c(F)c2)c1C(F)(F)F
## Output > 5 µM

## Input Please look at Cc1ccc(-n2ncc(C(=O)Nc3ccc(Oc4ccnc(N)c4Cl)c(F)c3)c2C(F)(F)F)cc1 and tell me its recorded IC50 on cMET (Homo sapiens, UniProt P08581).
## Output 0.5 to 5 µM

## Input For cMET (Homo sapiens, UniProt P08581), give IC50 of the listed molecule: CC(C)(C)n1ncc(C(=O)Nc2ccc(Oc3ncnc(N)c3Cl)c(F)c2)c1C(F)(F)F
## Output > 5 µM

* * *

Observed IC50 for cMET (Homo sapiens), reported per entry below.

See these solved cases before continuing.
INSERT INTO measurements (smiles_entry, test_value) VALUES
  ('Nc1nccc(Oc2ccc(NC(=O)c3cnn(-c4ccccc4)c3C(F)F)cc2F)c1Cl', '> 5 µM'),
  ('Nc1nccc(Oc2ccc(NC(=O)c3cnn(-c4ccccc4)c3C(F)(F)F)c(F)c2)c1Cl', '> 5 µM');

## Input Determine from records and report IC50 for Nc1nccc(Oc2ccc(NC(=O)c3cnn(-c4ccccc4)c3C(F)(F)F)cc2F)c1Cl
## Output 0.5 to 5 µM

## Input Using known records, supply IC50 for CCc1c(C(=O)Nc2ccc(Oc3ncnc(N)c3Cl)c(F)c2)cnn1-c1ccccc1
## Output > 5 µM
